Tested on: MDA-N
Experiment: NCI tumour cell line growth inhibition, 48 h
Please provide measured TGI for the entries that follow.

Answered examples (5):
>>> endpoint_result("CC[C@]1(Cc2ccc(OC)c(OC)c2)C2CC(C(=O)OC)ON2O[C@H](OCc2ccccc2)[C@@H]1OC(C)=O (stereo partly specified)")
"> 100 µM"
>>> endpoint_result("COc1ccc(C(=O)CCN(C)C)c2ccccc12")
"50.5 µM"
>>> endpoint_result("Cn1c2ccccc2c2c3c(c4c5ccccc5n(C5OC(CO)C(O)C(O)C5O)c4c21)C(=O)OC3=O (stereo unspecified)")
"> 100 µM"
>>> endpoint_result("COC(=O)CCC(=O)c1ccc2c(c1)CC1(C2)Cc2ccc(C(=O)CCC(=O)OC)cc2C1")
"> 100 µM"
>>> endpoint_result("COc1ccc(NC(=O)C(C#N)=C(SC)SC)cc1")
"> 100 µM"

Each compound below has a recorded value; state its TGI.
1. [C-]#[N+]C(=C\c1ccc(O)cc1)/C(=C/c1ccc(O)cc1)[N+]#[C-]
2. C1=CCC[C@@H]2CN3CCCC/C=C\CCCC[C@H]4C[C@H](CN(CCCCCCCC1)C4)[C@H]2CC3
3. CC(=O)C1C(=O)C(C(C)=O)C2C3C=CC(C3)C12 (stereo unspecified)
4. COC(=O)[C@@H]1C[C@]2(Br)c3ccccc3N(S(=O)(=O)c3ccccc3)[C@@H]2N1C(=O)OC
5. O=C(O)/C=C/c1ccc(OS(=O)(=O)O)cc1
6. CCCCC(=O)c1c(O)ccc2c(C)cc(=O)oc12
7. CC[C@@H]1CSC(/C=C/C2OC3OC(C)(C)OC3C3OC(C)(C)OC23)=N1 (stereo partly specified)

OUT:
3.35 µM
16.2 µM
> 100 µM
> 100 µM
> 100 µM
> 100 µM
21.3 µM

---

Test system: M14 melanoma
Experiment: NCI tumour cell line growth inhibition, 48 h; in the data active means GI50 below about 0.43 µM; inactive means the rest
Assign a class; possible classes are active, inactive

Solved entries:
>>> group_label("COc1ccc2c(c1)C(=O)c1c-2c(N2CCN(C(=O)CCNCCNCCN)CC2)nc2ccccc12")
"inactive"
>>> group_label("CCCS(=O)(=O)Nc1cccc(Nc2ncnc3cc(NC(=O)CCl)ccc23)c1Cl")
"inactive"
>>> group_label("O=C1c2cc3c(cc2-c2c1c1ccc(F)cc1c(=O)n2C[C@H](O)[C@H](O)[C@H](O)CO)OCO3")
"active"

IN: Outcome logged for `O=C(CCCC(=O)N/N=C/c1cc(Cl)ccc1O)N/N=C\c1cc(Cl)ccc1O` in this assay:
OUT: inactive

IN: Outcome logged for `CC(C)=Cc1cccc2[nH]c(O)c(N=Nc3ccc(S(N)(=O)=O)cc3)c12` in this assay:
OUT: inactive

IN: Outcome logged for CC(C)CCCCCCCCCCCCC(=O)NCC(=O)NC1C(C)OC(Nc2ncnc3nc[nH]c23)C(O)C1O (stereo not drawn) in this assay:
OUT: active

IN: Outcome logged for `S=C1SCN(Cc2ccccc2)CN1Cc1ccccc1` in this assay:
OUT: inactive

IN: Outcome logged for `CCCCc1n(Cc2ccc3ccccc3n2)cc[n+]1Cc1ccc2ccccc2n1` in this assay:
OUT: inactive

---

Please provide measured TGI for the entries that follow.
System: RXF 393 renal
Assay: NCI tumour cell line growth inhibition, 48 h

Answered examples (5):
>>> endpoint_result("N#CC(C(=O)CCC(=O)Nc1cccc(C(F)(F)F)c1)c1ccccc1 (stereo unspecified)")
"> 100 µM"
>>> endpoint_result("COc1c(C)c(OC)c(C(=O)CC(C)C)c(OC)c1C")
"> 100 µM"
>>> endpoint_result("CC(C)(C)OC(=O)N1CC(C)(C)N2C(=O)C3(CCCO3)C12 (stereo unspecified)")
"> 100 µM"
>>> endpoint_result("C[C@]12CCc3nonc3C1CC[C@@H]1C2CC[C@@]2(C)C1CC[C@@H]2O (stereo partly specified)")
"> 100 µM"
>>> endpoint_result("C#CC(C)(C)OCCCCOc1cc(O)c2c(=O)c3ccccc3n(C)c2c1")
"> 100 µM"

Shift focus to the following entry.
IN: Notebook entry, RXF 393 renal assay: TGI of `CC1=C[C@H]([C@H]2C=C(C)C(C(N)=O)=CN2Cc2c(Cl)cccc2Cl)N(Cc2c(Cl)cccc2Cl)C=C1C(N)=O` = ?
OUT: > 75 µM

The measured values listed here are drawn from PubChem BioAssay (NCI).
